Tested on: 633275-114-R-J1-PDC complex spheroids, viability
Experiment: Anticancer human tumor 633275-114-R-J1-PDC patient-derived endometrial adenocarcinoma cell line growth inhibition [GQUAD]
Conditions: curve of first compound; second compound 0.316 µM
Property Label: pIC50
pIC50 field: float, defined as -log10 of concentration (mol/L).

| Compound | pIC50 |
| --- | --- |
| Cc1[nH]c2ccccc2c1CCNCc1ccc(/C=C/C(=O)NO)cc1 + Cc1[nH]c2ccc(F)cc2c1-c1nc2c3cccnc3c3ncccc3c2[nH]1 | 7.18 |
| C=CCn1c(=O)c2cnc(Nc3ccc(N4CCN(C)CC4)cc3)nc2n1-c1cccc(C(C)(C)O)n1 + CN(C)c1ccc(Nc2c3ccc(NC(=O)CCN4CCCC4)cc3nc3cc(NC(=O)CCN4CCCC4)ccc23)cc1 | 6.23 |
| C=CCn1c(=O)c2cnc(Nc3ccc(N4CCN(C)CC4)cc3)nc2n1-c1cccc(C(C)(C)O)n1 + Cc1[nH]c2ccc(F)cc2c1-c1nc2c3cccnc3c3ncccc3c2[nH]1 | 6.21 |
| CC[C@@]1(O)C(=O)OCc2c1cc1n(c2=O)Cc2cc3c(CN(C)C)c(O)ccc3nc2-1 + CN(C)c1ccc(Nc2c3ccc(NC(=O)CCN4CCCC4)cc3nc3cc(NC(=O)CCN4CCCC4)ccc23)cc1 | 7.09 |

Entry CC1COCCN1c1cc(-c2ccnn2C)c2ccnc(-c3ccn[nH]3)c2n1 (stereo unspecified) + Cc1[nH]c2ccc(F)cc2c1-c1nc2c3cccnc3c3ncccc3c2[nH]1 , pIC50 reported as 6.72

---

System: 633275-114-R-J1-PDC complex spheroids, viability
Test: Anticancer human tumor 633275-114-R-J1-PDC cell line growth inhibition [GQUAD];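 further: spheroids exposed to the agents for seven days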;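 on viability, T/C: percent of DMSO vehicle control viability which is 100%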
Details: second compound 0.1 µM; first compound 0.000999 µM; stronger effect = lower value
Class (by viability, T/C) -- bottom range: < 60%; center range: ≥ 60% and < 90%; top range: ≥ 90%

As a guide, the following entries are already answered.
| Molecule | Assigned Class |
| --- | --- |
| CC[C@@]1(O)C(=O)OCc2c1cc1n(c2=O)Cc2cc3c(CN(C)C)c(O)ccc3nc2-1 + Cc1cnc(CNC(=O)c2c(=O)c3ccc(N4CCCN(C)CC4)nc3n3c2sc2ccccc23)cn1 | bottom range |
| CC[C@@]1(O)C(=O)OCc2c1cc1n(c2=O)Cc2cc3c(CN(C)C)c(O)ccc3nc2-1 + Cc1[nH]c2ccc(F)cc2c1-c1nc2c3cccnc3c3ncccc3c2[nH]1 | top range |
| Cc1[nH]c2ccccc2c1CCNCc1ccc(/C=C/C(=O)NO)cc1 + CN(C)c1ccc(Nc2c3ccc(NC(=O)CCN4CCCC4)cc3nc3cc(NC(=O)CCN4CCCC4)ccc23)cc1 | top range |

Which viability, T/C category applies to Cn1ncnc1[C@H]1c2n[nH]c(=O)c3cc(F)cc(c23)N[C@@H]1c1ccc(F)cc1 + CN(C)c1ccc(Nc2c3ccc(NC(=O)CCN4CCCC4)cc3nc3cc(NC(=O)CCN4CCCC4)ccc23)cc1 here? top range

---

System: 633275-114-R-J1-PDC complex spheroids, viability
Assay: Anticancer human tumor 633275-114-R-J1-PDC cell line growth inhibition [GQUAD];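 further: spheroids exposed to the agents for seven days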;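 on viability, T/C: percent of DMSO vehicle control viability which is 100%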
Conditions: second compound 1 µM; first compound 10 µM; stronger effect = lower value
Property: viability, T/C; scope: individual compounds
Numeric only. Scale: %

| Compound | viability, T/C [%] |
| --- | --- |
| O=C(c1cc(Cc2n[nH]c(=O)c3ccccc23)ccc1F)N1CCN(C(=O)C2CC2)CC1 + Cc1[nH]c2ccc(F)cc2c1-c1nc2c3cccnc3c3ncccc3c2[nH]1 | 56.7 |
| CCCS(=O)(=O)Nc1ccc(F)c(C(=O)c2c[nH]c3ncc(-c4ccc(Cl)cc4)cc23)c1F + CN(C)c1ccc(Nc2c3ccc(NC(=O)CCN4CCCC4)cc3nc3cc(NC(=O)CCN4CCCC4)ccc23)cc1 | 43.4 |
| CC(C)n1c(=O)n(C)c2cnc3cc(F)c(-c4ccc(OCCCN5CCCCC5)nc4)cc3c21 + Cc1[nH]c2ccc(F)cc2c1-c1nc2c3cccnc3c3ncccc3c2[nH]1 | 70.7 |
| COc1cccc2c1C(=O)c1c(O)c3c(c(O)c1C2=O)CC(O)(C(=O)CO)CC3OC1CC(N)C(O)C(C)O1 (stereo unspecified) + CN(C)c1ccc(Nc2c3ccc(NC(=O)CCN4CCCC4)cc3nc3cc(NC(=O)CCN4CCCC4)ccc23)cc1 | 1.66 |

Sure, the documented viability, T/C for CCCS(=O)(=O)Nc1ccc(F)c(C(=O)c2c[nH]c3ncc(-c4ccc(Cl)cc4)cc23)c1F + Cc1[nH]c2ccc(F)cc2c1-c1nc2c3cccnc3c3ncccc3c2[nH]1 is 42

Value of viability, T/C reported for the compound CC1COCCN1c1cc(-c2ccnn2C)c2ccnc(-c3ccn[nH]3)c2n1 (stereo unspecified) + CN(C)c1ccc(Nc2c3ccc(NC(=O)CCN4CCCC4)cc3nc3cc(NC(=O)CCN4CCCC4)ccc23)cc1 is 16.2

Entry O=C(c1cc(Cc2n[nH]c(=O)c3ccccc23)ccc1F)N1CCN(C(=O)C2CC2)CC1 + Cc1cnc(CNC(=O)c2c(=O)c3ccc(N4CCCN(C)CC4)nc3n3c2sc2ccccc23)cn1 ; viability, T/C = 35.1

The reported viability, T/C of the compound CC(C)n1c(=O)n(C)c2cnc3cc(F)c(-c4ccc(OCCCN5CCCCC5)nc4)cc3c21 + Cc1cnc(CNC(=O)c2c(=O)c3ccc(N4CCCN(C)CC4)nc3n3c2sc2ccccc23)cn1 was 33.6

The value of viability, T/C measured for the compound CC1COCCN1c1cc(C2(O)CC3CCC(C2)O3)c2cnn(-c3ccn[nH]3)c2n1 (stereo unspecified) + CN(C)c1ccc(Nc2c3ccc(NC(=O)CCN4CCCC4)cc3nc3cc(NC(=O)CCN4CCCC4)ccc23)cc1 turned out to be 9.06

Documented viability, T/C of Nc1ccn(C2OC(CO)C(O)C2(F)F)c(=O)n1 (stereo unspecified) + Cc1[nH]c2ccc(F)cc2c1-c1nc2c3cccnc3c3ncccc3c2[nH]1 : 20.1

What the record says about COc1cccc2c1C(=O)c1c(O)c3c(c(O)c1C2=O)CC(O)(C(=O)CO)CC3OC1CC(N)C(O)C(C)O1 (stereo unspecified) + Cc1[nH]c2ccc(F)cc2c1-c1nc2c3cccnc3c3ncccc3c2[nH]1 : viability, T/C is 1.57

---

System: 633275-114-R-J1-PDC complex spheroids, viability
Assay: Anticancer human tumor 633275-114-R-J1-PDC cell line growth inhibition [GQUAD]; active = viability on the fitted dose curve at most 10% of control; inactive = the rest;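 further: spheroids exposed to the agents for seven days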
Conditions: second compound 0.316 µM; first compound 10 µM
Parameter call: string, one of active, inactive

| Compound | Assigned Class |
| --- | --- |
| Cc1cccc(N(C)C(=O)C2C(O)CCN2c2nc(C)cc(C(F)(F)F)c2C#N)c1 (stereo unspecified) + Cc1cnc(CNC(=O)c2c(=O)c3ccc(N4CCCN(C)CC4)nc3n3c2sc2ccccc23)cn1 | inactive |
| CC1COCCN1c1cc(C2(O)CC3CCC(C2)O3)c2cnn(-c3ccn[nH]3)c2n1 (stereo unspecified) + Cc1cnc(CNC(=O)c2c(=O)c3ccc(N4CCCN(C)CC4)nc3n3c2sc2ccccc23)cn1 | active |
| Nc1ccn(C2OC(CO)C(O)C2(F)F)c(=O)n1 (stereo unspecified) + CN(C)c1ccc(Nc2c3ccc(NC(=O)CCN4CCCC4)cc3nc3cc(NC(=O)CCN4CCCC4)ccc23)cc1 | inactive |
| COc1ncnc(C2CC2)c1-c1ncc2cnn(Cc3ccc(-c4nc(C(F)(F)F)cn4C(C)C)cc3)c2n1 + CN(C)c1ccc(Nc2c3ccc(NC(=O)CCN4CCCC4)cc3nc3cc(NC(=O)CCN4CCCC4)ccc23)cc1 | inactive |
| C=CCn1c(=O)c2cnc(Nc3ccc(N4CCN(C)CC4)cc3)nc2n1-c1cccc(C(C)(C)O)n1 + CN(C)c1ccc(Nc2c3ccc(NC(=O)CCN4CCCC4)cc3nc3cc(NC(=O)CCN4CCCC4)ccc23)cc1 | inactive |

Assay outcome for CCCS(=O)(=O)Nc1ccc(F)c(C(=O)c2c[nH]c3ncc(-c4ccc(Cl)cc4)cc23)c1F + Cc1[nH]c2ccc(F)cc2c1-c1nc2c3cccnc3c3ncccc3c2[nH]1 : what was it? inactive

Hi, do you know how COc1ncnc(C2CC2)c1-c1ncc2cnn(Cc3ccc(-c4nc(C(F)(F)F)cn4C(C)C)cc3)c2n1 + Cc1cnc(CNC(=O)c2c(=O)c3ccc(N4CCCN(C)CC4)nc3n3c2sc2ccccc23)cn1 came out in this test? inactive

Query: recorded result category for C=CCn1c(=O)c2cnc(Nc3ccc(N4CCN(C)CC4)cc3)nc2n1-c1cccc(C(C)(C)O)n1 + Cc1cnc(CNC(=O)c2c(=O)c3ccc(N4CCCN(C)CC4)nc3n3c2sc2ccccc23)cn1 in this test inactive

Tell me the recorded outcome of this test for C#Cc1c(F)ccc2cc(O)cc(-c3ncc4c(N5CC6CCC(C5)N6)nc(OCC56CCCN5CC(F)C6)nc4c3F)c12 (stereo unspecified) + Cc1cnc(CNC(=O)c2c(=O)c3ccc(N4CCCN(C)CC4)nc3n3c2sc2ccccc23)cn1 . inactive

Which outcome did this test record for the compound C=CCn1c(=O)c2cnc(Nc3ccc(N4CCN(C)CC4)cc3)nc2n1-c1cccc(C(C)(C)O)n1 + Cc1[nH]c2ccc(F)cc2c1-c1nc2c3cccnc3c3ncccc3c2[nH]1 ? inactive

Write down the call the test reported for this compound. Item: O=C(c1cc(Cc2n[nH]c(=O)c3ccccc23)ccc1F)N1CCN(C(=O)C2CC2)CC1 + Cc1cnc(CNC(=O)c2c(=O)c3ccc(N4CCCN(C)CC4)nc3n3c2sc2ccccc23)cn1 inactive

So what was the verdict on CC1COCCN1c1cc(C2(S(C)(=N)=O)CC2)nc(-c2ccnc3[nH]ccc23)n1 (stereo unspecified) + CN(C)c1ccc(Nc2c3ccc(NC(=O)CCN4CCCC4)cc3nc3cc(NC(=O)CCN4CCCC4)ccc23)cc1 in this test? inactive

Kindly provide the recorded test outcome for the following compound: Cc1cccc(N(C)C(=O)C2C(O)CCN2c2nc(C)cc(C(F)(F)F)c2C#N)c1 (stereo unspecified) + Cc1[nH]c2ccc(F)cc2c1-c1nc2c3cccnc3c3ncccc3c2[nH]1 inactive

Status in this test for CC(C)n1c(=O)n(C)c2cnc3cc(F)c(-c4ccc(OCCCN5CCCCC5)nc4)cc3c21 + Cc1cnc(CNC(=O)c2c(=O)c3ccc(N4CCCN(C)CC4)nc3n3c2sc2ccccc23)cn1 ? inactive

Dear all, I need the recorded test outcome for O=c1[nH]cc(F)c(=O)[nH]1 + Cc1cnc(CNC(=O)c2c(=O)c3ccc(N4CCCN(C)CC4)nc3n3c2sc2ccccc23)cn1 , thank you. inactive

// return assay outcome for COc1ccc([C@@H](O)c2cc(-c3ncnc4cc(N5CCOCC5)ccc34)c(F)cc2Cl)nn1 + Cc1cnc(CNC(=O)c2c(=O)c3ccc(N4CCCN(C)CC4)nc3n3c2sc2ccccc23)cn1 inactive

Hello, I am checking results. What call was entered for C=CC(=O)N1CCN(c2nc(=O)n(-c3c(C)ccnc3C(C)C)c3nc(-c4c(O)cccc4F)c(F)cc23)C(C)C1 (stereo unspecified) + Cc1cnc(CNC(=O)c2c(=O)c3ccc(N4CCCN(C)CC4)nc3n3c2sc2ccccc23)cn1 ? inactive

Please state the recorded outcome for this compound: CC(C)(O)C1CCC(Nc2ccc3ncc(-c4cccc(C(F)(F)F)c4)n3n2)CC1 (stereo unspecified) + Cc1cnc(CNC(=O)c2c(=O)c3ccc(N4CCCN(C)CC4)nc3n3c2sc2ccccc23)cn1 inactive

Hi, sorry to bother you, what did the test record for CC(C)(O)C1CCC(Nc2ccc3ncc(-c4cccc(C(F)(F)F)c4)n3n2)CC1 (stereo unspecified) + Cc1[nH]c2ccc(F)cc2c1-c1nc2c3cccnc3c3ncccc3c2[nH]1 ? inactive

Each compound tested received a call. Report the one for CC(C)n1c(=O)n(C)c2cnc3cc(F)c(-c4ccc(OCCCN5CCCCC5)nc4)cc3c21 + Cc1[nH]c2ccc(F)cc2c1-c1nc2c3cccnc3c3ncccc3c2[nH]1 . inactive

What is the recorded call for this compound in the test? COc1cccc2c1C(=O)c1c(O)c3c(c(O)c1C2=O)CC(O)(C(=O)CO)CC3OC1CC(N)C(O)C(C)O1 (stereo unspecified) + Cc1[nH]c2ccc(F)cc2c1-c1nc2c3cccnc3c3ncccc3c2[nH]1 active
